Attribution: ChEMBL document CHEMBL1134008

Quick list: IC50 per entry.
testedSystem: Adrenergic receptor alpha-1 (Rattus norvegicus, UniProt P15823+P23944+P43140)
Sequence (P15823 whole entry): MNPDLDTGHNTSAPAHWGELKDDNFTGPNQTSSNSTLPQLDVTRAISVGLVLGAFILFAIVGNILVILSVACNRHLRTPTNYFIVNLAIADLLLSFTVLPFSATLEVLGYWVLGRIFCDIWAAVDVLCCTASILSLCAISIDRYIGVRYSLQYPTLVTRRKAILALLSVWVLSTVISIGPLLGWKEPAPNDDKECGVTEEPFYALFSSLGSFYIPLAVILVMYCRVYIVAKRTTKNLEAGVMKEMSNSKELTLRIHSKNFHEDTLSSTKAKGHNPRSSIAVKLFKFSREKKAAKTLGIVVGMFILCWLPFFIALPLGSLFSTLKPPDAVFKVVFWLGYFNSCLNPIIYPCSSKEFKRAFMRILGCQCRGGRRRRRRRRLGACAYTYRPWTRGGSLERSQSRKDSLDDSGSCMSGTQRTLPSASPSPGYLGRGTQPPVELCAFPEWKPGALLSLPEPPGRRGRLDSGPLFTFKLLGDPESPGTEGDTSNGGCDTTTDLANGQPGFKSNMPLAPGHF
Sequence (P23944 whole entry): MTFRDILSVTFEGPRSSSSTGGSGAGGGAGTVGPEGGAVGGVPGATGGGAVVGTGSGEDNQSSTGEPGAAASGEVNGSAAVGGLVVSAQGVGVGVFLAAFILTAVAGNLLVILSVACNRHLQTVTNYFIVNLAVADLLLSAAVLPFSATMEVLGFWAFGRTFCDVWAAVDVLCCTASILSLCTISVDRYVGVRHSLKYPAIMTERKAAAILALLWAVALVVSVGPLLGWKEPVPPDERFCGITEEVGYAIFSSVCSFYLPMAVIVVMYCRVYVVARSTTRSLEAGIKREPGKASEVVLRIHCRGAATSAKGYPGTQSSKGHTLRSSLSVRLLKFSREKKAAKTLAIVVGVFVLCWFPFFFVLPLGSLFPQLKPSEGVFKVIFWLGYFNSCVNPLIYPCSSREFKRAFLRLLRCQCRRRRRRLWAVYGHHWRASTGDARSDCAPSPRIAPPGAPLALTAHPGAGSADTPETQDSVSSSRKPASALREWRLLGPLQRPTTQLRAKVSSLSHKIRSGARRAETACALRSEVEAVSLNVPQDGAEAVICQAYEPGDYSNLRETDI
Sequence (P43140 whole entry): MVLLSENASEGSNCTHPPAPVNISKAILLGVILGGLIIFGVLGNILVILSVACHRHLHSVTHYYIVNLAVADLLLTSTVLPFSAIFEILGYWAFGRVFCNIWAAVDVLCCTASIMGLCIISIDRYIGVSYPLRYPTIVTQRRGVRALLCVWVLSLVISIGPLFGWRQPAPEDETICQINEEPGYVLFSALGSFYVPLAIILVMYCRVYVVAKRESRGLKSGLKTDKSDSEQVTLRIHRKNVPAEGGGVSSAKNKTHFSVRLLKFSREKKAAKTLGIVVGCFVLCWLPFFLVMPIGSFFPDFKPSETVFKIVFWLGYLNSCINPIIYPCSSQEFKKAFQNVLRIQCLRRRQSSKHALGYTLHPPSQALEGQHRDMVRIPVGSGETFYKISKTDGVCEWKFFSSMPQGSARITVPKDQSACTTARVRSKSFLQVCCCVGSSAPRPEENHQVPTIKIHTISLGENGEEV
protocolText: Inhibition of binding of [3H]prazosin to Alpha-1 adrenergic receptor in rat cortical membranes
Format: cell membranes, Membrane
readoutName: IC50 (µM)

compound="COc1cccc2c1CC1CCCN(Cc3ccccc3)C1C2 (stereo in doubt; trans)" testedsystem="Adrenergic receptor alpha-1 (Rattus norvegicus, UniProt P15823+P23944+P43140)" numericresult=588
compound="COc1cccc2c1CC1CCCN(Cc3ccccc3)C1C2 (stereo in doubt; cis)" testedsystem="Adrenergic receptor alpha-1 (Rattus norvegicus, UniProt P15823+P23944+P43140)" numericresult=667
compound="c1ccc(CN2CCCC3Cc4ccccc4CC32)cc1 (stereo in doubt; cis)" testedsystem="Adrenergic receptor alpha-1 (Rattus norvegicus, UniProt P15823+P23944+P43140)" numericresult=739
compound="c1ccc(CN2CCCC3Cc4ccccc4CC32)cc1 (stereo in doubt; trans)" testedsystem="Adrenergic receptor alpha-1 (Rattus norvegicus, UniProt P15823+P23944+P43140)" numericresult=218
